Target: Aβ42 (Homo sapiens, UniProt P05067)
Sequence (P05067 672-713): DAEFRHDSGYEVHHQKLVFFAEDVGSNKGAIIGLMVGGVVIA
Assay: Th-T (thioflavin-T) assay of Aβ42 aggregation
Format: biochemical
Details: concentration 50, unit not given; time-course reading M129
Each entry below lists one item and its recorded Th-T fluorescence of Aβ42 with compound, mean of three wells (Fig. 7a source data) value.
Quick one: just the number, no unit, thanks!

> print(dat)
                                   compound  measurement
1  C=C1CCC2C(C)(CCC=C(C)C)C(O)CCC2(C)C1Cc1c(OC)oc(CO)c(C(=O)OC)c1=O (centres unmarked)        0.475
2  C=C1CCC2C(C)(CCC=C(C)C)C(O)CCC2(C)C1Cc1c(OC)oc(CO)c(C)c1=O (centres unmarked)        1.589
3  C=C1CC[C@@H]2[C@](C)(CC[C@H]3O[C@H](C=C(C)C)C[C@@]23C)[C@@H]1Cc1c(OC)oc(CO)c(C)c1=O        2.106

## Input Item under review: C=C1CCC2C(C)(CCC=C(C)C)C(O)CCC2(C)C1Cc1c(OC)oc(C)c(C(=O)OC)c1=O (centres unmarked) . Reported Th-T fluorescence of Aβ42 with compound, mean of three wells (Fig. 7a source data)?
## Output 0.8842

## Input Item under review: C=C1CC[C@@H]2[C@](C)(CC[C@H]3O[C@H](C=C(C)C)C[C@@]23C)[C@@H]1Cc1c(OC)oc(CO)c(C(=O)OC)c1=O . Reported Th-T fluorescence of Aβ42 with compound, mean of three wells (Fig. 7a source data)?
## Output 0.5005

* * *

Target: Aβ42 (Homo sapiens, UniProt P05067)
Test: Th-T (thioflavin-T) assay of Aβ42 aggregation
Format: biochemical
Details: column suffix _10; reading M98
readout: Fig. 7a Th-T reading, mean of three wells

> print(dat)
                                   compound                   experimentaltarget  measurement
1  C=C1CCC2C(C)(CCC=C(C)C)C(O)CCC2(C)C1Cc1c(OC)oc(C)c(C(=O)OC)c1=O (centres unmarked)  Aβ42 (Homo sapiens, UniProt P05067)        2.843

## Input Item under review: C=C1CC[C@@H]2[C@](C)(CC[C@H]3O[C@H](C=C(C)C)C[C@@]23C)[C@@H]1Cc1c(OC)oc(CO)c(C(=O)OC)c1=O . Reported Fig. 7a Th-T reading, mean of three wells?
## Output 1.638

## Input Item under review: C=C1CCC2C(C)(CCC=C(C)C)C(O)CCC2(C)C1Cc1c(OC)oc(CO)c(C)c1=O (centres unmarked) . Reported Fig. 7a Th-T reading, mean of three wells?
## Output 2.913

## Input Item under review: C=C1CCC2C(C)(CCC=C(C)C)C(O)CCC2(C)C1Cc1c(OC)oc(CO)c(C(=O)OC)c1=O (centres unmarked) . Reported Fig. 7a Th-T reading, mean of three wells?
## Output 1.554

## Input Item under review: C=C1CC[C@@H]2[C@](C)(CC[C@H]3O[C@H](C=C(C)C)C[C@@]23C)[C@@H]1Cc1c(OC)oc(CO)c(C)c1=O . Reported Fig. 7a Th-T reading, mean of three wells?
## Output 3.318

* * *

Each entry below lists one item and its recorded Th-T fluorescence of Aβ42 (sheet Fig. 7a), mean of three wells value.
Biological target: Aβ42 (Homo sapiens)
Experiment: Th-T (thioflavin-T) assay of Aβ42 aggregation
Type: biochemical
Conditions: head suffix _10 (concentration 10); reading M69
Quick one: just the number, no unit, thanks!

Examples with their reported Th-T fluorescence of Aβ42 (sheet Fig. 7a), mean of three wells follow.
> print(dat)
                                   compound  measurement
1  C=C1CC[C@@H]2[C@](C)(CC[C@H]3O[C@H](C=C(C)C)C[C@@]23C)[C@@H]1Cc1c(OC)oc(CO)c(C(=O)OC)c1=O [Compound 21]       0.7892
2  C=C1CCC2C(C)(CCC=C(C)C)C(O)CCC2(C)C1Cc1c(OC)oc(CO)c(C)c1=O (centres unmarked) [Compound 12]        3.344
3  C=C1CC[C@@H]2[C@](C)(CC[C@H]3O[C@H](C=C(C)C)C[C@@]23C)[C@@H]1Cc1c(OC)oc(CO)c(C)c1=O [Compound 20]       3.4039
4  C=C1CCC2C(C)(CCC=C(C)C)C(O)CCC2(C)C1Cc1c(OC)oc(CO)c(C(=O)OC)c1=O (centres unmarked) [Compound 13]         1.56

## Input Item under review: C=C1CCC2C(C)(CCC=C(C)C)C(O)CCC2(C)C1Cc1c(OC)oc(C)c(C(=O)OC)c1=O (centres unmarked) [Compound 14] . Reported Th-T fluorescence of Aβ42 (sheet Fig. 7a), mean of three wells?
## Output 2.6808
